The values you see were collected from PubChem BioAssay AID1159580.

assay: chemical genetic growth profiling, strain panel (AID 1159580);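 note: tested at 20 µM; growth read once vehicle control cultures reached saturation at 30 °C; 1 = growth at the plate median or of vehicle wells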; settings: S. cerevisiae deletion strains, growth OD, locus YOR106W, strain vam3, stronger effect = lower value
In all, about 5,500 compounds went through this assay and about 2,000 (36%) were called active. Inconclusive results (about 18%) are left out. This is one part of the list.
Decision: normalized growth beneath 1 gives t; normalized growth meeting or exceeding 1 gives f.

The following molecules have reported results that may help.
COC(=O)C1=C(C)NC(C)=C(C(=O)OC)C1c1ccccc1[N+](=O)[O-]	t
CC(C)Oc1ccc2c(=O)cc(-c3ccccc3)oc2c1	t
CC1(C)O[C@@H]2CC3C4CCC5=CC(=O)C=C[C@]5(C)[C@@]4(F)[C@@H](O)C[C@]3(C)[C@]2(C(=O)CO)O1 (stereo not given in full)	t
CN1CCOC(c2ccccc2)c2ccccc2C1 (stereo not given)	t
[N-]=[N+]=CC(=O)OCC(N)C(=O)O (stereo not given)	f
C[n+]1cc2c3c(ccc2c2ccc4cc5c(cc4c21)OCO5)OCO3	t

normalized growth strictly < 1 for this molecule? Cn1nnnc1SCC1=C(C(=O)O)N2C(=O)C(NC(=O)C(O)c3ccccc3)C2SC1 (stereo not given)
t

###

experiment: chemical genetic growth profiling, strain panel (AID 1159580); settings: S. cerevisiae deletion strains, growth OD, locus YOR144C, strain elg1
Hit rate of the full screen: of about 5,500 compounds, about 2,000 (36%) were called active. About 18% were inconclusive and are not listed. No stated cut-off is given here; in the data, active means normalized growth mostly below about 0.91 (no sharp cut-off); inconclusive means no clear call, values can overlap the other calls; inactive means mostly above about 0.92. The list shows a part of the results.
Respond with a class label; see active, inactive

The following molecules have reported results that may help.
C=CCc1ccccc1OCC(O)CNC(C)C (configuration not stated)	inactive
Cc1cc(=O)c2c(O)c3c(cc2o1)OCC(C)CC3 (configuration not stated)	active
N[C@@H]1CONC1=O	inactive
CC1=CCc2c(cc3oc(C)cc(=O)c3c2O)OC1	inactive
O=C(O)/C=C(\CC(=O)O)C(=O)O	inactive

Any idea what this test logged for `CC1=NCCc2c1[nH]c1cc(O)ccc21` ?
inactive

Any idea what this test logged for `O=C(O)c1nc2cc(Cl)c(Cl)cc2[nH]c1=O` ?
inactive

###

assay: chemical genetic growth profiling, strain panel (AID 1159580); conditions: S. cerevisiae deletion strains, growth OD, locus YBR231C, strain swc5, stronger effect = lower value
The campaign covered roughly 5,500 compounds. About 2,000 (36%) were called active. Roughly 18% stayed inconclusive and do not appear here. The list shows a part of the results.
result-type: normalized growth
The answer should be a number; do not append a unit.

CN(C)CCC=C1c2ccccc2C=Cc2ccccc21	0.997
CNCCC=C1c2ccccc2CCc2ccccc21	0.996
CN(C)CCC=C1c2ccccc2CCc2ccccc21	1
CCN(CC)CCNc1ccc(CO)c2sc3ccccc3c(=O)c12	1

# evaluate next
Tell me normalized growth reported for CC1(C)O[C@@H]2CC3C4CCC5=CC(=O)C=C[C@]5(C)[C@@]4(F)[C@@H](O)C[C@]3(C)[C@]2(C(=O)CO)O1 (stereo not given in full)
0.987

###

test: chemical genetic growth profiling, strain panel (AID 1159580); conditions: S. cerevisiae deletion strains, growth OD, locus YBR229C, strain ROT2, stronger effect = lower value
Screen size: about 5,500 compounds; about 2,000 (36%) were called active. Another 18% or so got no clear call; they are omitted. The list shows a part of the results.
result-type: normalized growth
The answer should be a number; do not append a unit.

Guide cases for normalized growth, answers given:
CC(C)(C)OC(=O)NC1CCN(C(=O)c2ccc(Cl)cc2Cl)CC1	0.993
CSC(=NCc1cccnc1)NC#N	1
CCOC(=O)c1ccc2oc3ccc(O)cc3c(=O)c2c1	0.982
O=c1c2ccccc2oc2ccc(O)cc12	0.952
CC(C)(Oc1ccc(Cl)cc1)C(=O)O	0.998

# evaluate next
Tell me normalized growth reported for `CCCN1C[C@H](CSC)C[C@@H]2c3cccc4[nH]cc(c34)C[C@H]21`
1

###

test: chemical genetic growth profiling, strain panel (AID 1159580);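 note: tested at 20 µM; growth read once vehicle control cultures reached saturation at 30 °C; 1 = growth at the plate median or of vehicle wells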; conditions: S. cerevisiae deletion strains, growth OD, locus YDL017W, strain CDC7
Among all 5,500 compounds or so, about 2,000 (36%) were called active. Inconclusive results (about 18%) are left out. No stated cut-off is given here; in the data, active means normalized growth mostly below about 0.91 (no sharp cut-off); inconclusive means no clear call, values can overlap the other calls; inactive means mostly above about 0.92. The list shows a part of the results.
Respond with a class label; see 1 (yes) = active, 0 (no) = inactive

The following molecules have reported results that may help.
CCC(C)Cn1c(Sc2ncc([N+](=O)[O-])s2)n[nH]c1=O (stereo not given)	1 (yes)
C#Cc1cccc(N=Cc2cc(Cl)cc(Br)c2O)c1	1 (yes)
CC(C)(C)c1cc2nc(C(F)(F)F)cc(NNC(=O)c3ccc(Cl)cc3)n2n1	0 (no)
Cc1ccc2c(c1)CCCN2CC(=O)N(c1ccccc1)C1CCCCC1	0 (no)
Clc1ccccc1N/N=C\Cc1nnnn1-c1ccccc1	0 (no)
COc1cc(NC(=S)Nc2ccccc2OC(F)(F)F)cc(C(F)(F)F)c1	0 (no)

Any idea what this test logged for CCC(C)COC(=O)/C=C/c1ccc(N=Cc2ccc(OC)cc2)cc1 (stereo not given) ?
0 (no)

Any idea what this test logged for `CC(C)(C)c1csc(NC(=O)c2ccc(Cl)cc2Cl)n1` ?
0 (no)

Any idea what this test logged for `Clc1ccc(-c2csc(Nc3ccccc3)n2)s1` ?
0 (no)

Any idea what this test logged for `CN(C(=O)N(C)c1ccc(Cl)cc1C(=O)c1ccccc1Cl)c1ccc(Cl)cc1C(=O)c1ccccc1Cl` ?
1 (yes)

Any idea what this test logged for `CC(C)(C)c1csc(NC(=O)Nc2ccc(Cl)cc2)n1` ?
0 (no)

Any idea what this test logged for `Cc1csc2ncnc(N/N=C\c3ccccc3Cl)c12` ?
0 (no)

Any idea what this test logged for `CCn1nc(C)cc1-c1nnc(Sc2ncc([N+](=O)[O-])s2)n1C` ?
0 (no)

Any idea what this test logged for `O=C1Nc2ccccc2/C1=N/N=C\c1cc(Br)cc(Br)c1O` ?
0 (no)

Any idea what this test logged for `O=C1Nc2ccccc2/C1=N/N=C\c1ccccc1Cl` ?
0 (no)

###

experiment: chemical genetic growth profiling, strain panel (AID 1159580);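 note: tested at 20 µM; growth read once vehicle control cultures reached saturation at 30 °C; 1 = growth at the plate median or of vehicle wells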; conditions: S. cerevisiae deletion strains, growth OD, locus YDR150W, strain NUM1, stronger effect = lower value
Hit rate of the full screen: of about 5,500 compounds, about 2,000 (36%) were called active. Not shown: some 18% with an inconclusive outcome. The list shows a part of the results.
result-type: normalized growth
The answer should be a number; do not append a unit.

Guide cases for normalized growth, answers given:
COc1c(O)cccc1O	0.999
COc1ccc2c(c1OC)C(=O)O[C@@H]2[C@H]1c2c(cc3c(c2OC)OCO3)CCN1C	1
COc1c2c(cc3c1OCO3)CC[N+](C)=C2	0.993

# evaluate next
Tell me normalized growth reported for `COc1cc2cc[n+]3cc4c(OC)c(OC)ccc4cc3c2cc1OC`
0.954

###

assay: chemical genetic growth profiling, strain panel (AID 1159580);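 note: tested at 20 µM; growth read once vehicle control cultures reached saturation at 30 °C; 1 = growth at the plate median or of vehicle wells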; conditions: S. cerevisiae deletion strains, growth OD, locus YGR252W, strain gcn5
The campaign covered roughly 5,500 compounds. About 2,000 (36%) were called active. Another 18% or so got no clear call; they are omitted. Rule as the data show it: active = normalized growth mostly below about 0.91 (no sharp cut-off); inconclusive = no clear call, values can overlap the other calls; inactive = mostly above about 0.92. The list shows a part of the results.
Respond with a class label; see active, inactive

Any idea what this test logged for Nc1ccc(C(=O)O)c(O)c1 (tested in a mixture with another compound) ?
inactive

Any idea what this test logged for CC1(C)O[C@@H]2CC3C4CCC5=CC(=O)C=C[C@]5(C)[C@@]4(F)[C@@H](O)C[C@]3(C)[C@]2(C(=O)CO)O1 (some centres undefined) ?
inactive

Any idea what this test logged for `CC(C)c1ccc2c(c1O)CC[C@H]1C3=C(CC[C@]21C)C(=O)OC3` ?
inactive

Any idea what this test logged for CC(=O)O[C@H]1C[C@H](O[C@H]2[C@@H](O)C[C@H](O[C@H]3[C@@H](O)C[C@H](O[C@H]4CC[C@@]5(C)C(CCC6C5C[C@@H](O)[C@]5(C)[C@@H](C7=CC(=O)OC7)CC[C@]65O)C4)O[C@@H]3C)O[C@@H]2C)O[C@H](C)[C@H]1O[C@@H]1O[C@H](CO)[C@@H](O)[C@H](O)[C@H]1O (some centres undefined) ?
inactive

Any idea what this test logged for CC(=O)O[C@H]1C[C@@]2(C)[C@H](c3ccoc3)OC(=O)[C@H]3O[C@]32[C@@]2(C)C1[C@]1(C)C(C[C@H]2OC(C)=O)C(C)(C)[C@H](OC(C)=O)C[C@@H]1OC(C)=O (some centres undefined) ?
inactive

Any idea what this test logged for CN1CCN2c3ccccc3Cc3ccccc3C2C1 (centres undefined) ?
inactive

Any idea what this test logged for `COc1cc2c3cc1Oc1cc(ccc1O)C[C@@H]1c4c(cc(OC)c(O)c4Oc4ccc(cc4)C[C@@H]3N(C)CC2)CC[N+]1(C)C` ?
inactive

Any idea what this test logged for `COc1ccc(-c2cc(=O)c3c(OC)cccc3o2)cc1` ?
inactive

Any idea what this test logged for `O=c1c(-c2ccccc2)coc2cc(O)cc(O)c12` ?
active

Any idea what this test logged for `COc1ccc2cc3[n+](cc2c1OC)CCc1cc2c(cc1-3)OCO2` ?
active

Any idea what this test logged for `O=c1c(-c2ccc(O)cc2)coc2cc(O)cc(O)c12` ?
inactive

Any idea what this test logged for `COc1cccc2c1cc([N+](=O)[O-])c1c(C(=O)O)cc3c(c12)OCO3` ?
inactive

Any idea what this test logged for CC(=O)O[C@H]1C[C@@H](O)C(C)(C)C2C[C@@H](OC(C)=O)[C@]3(C)C(CC[C@@]4(C)[C@H](c5ccoc5)OC(=O)C5OC543)[C@]21C (some centres undefined) ?
inactive

Any idea what this test logged for `CC(=O)Nc1ccc(OC(=O)c2ccccc2O)cc1` ?
active

Any idea what this test logged for `COc1cc([C@@H]2c3cc4c(cc3[C@H](O)[C@H]3COC(=O)[C@@H]23)OCO4)cc(OC)c1OC` ?
inactive

Any idea what this test logged for `CC(=O)Nc1ccc(O)cc1` ?
inactive

Any idea what this test logged for CC(=O)O[C@@H]1CC2C(C)(C)C(=O)CC[C@]2(C)C2CC[C@@]3(C)[C@H](c4ccoc4)OC(=O)C4OC43[C@@]21C (some centres undefined) ?
inactive

Any idea what this test logged for `Nc1ccc(C(=O)Oc2ccccc2)c(O)c1` ?
active

Any idea what this test logged for `COc1c(O)cc2c(-c3ccccc3)cc(=O)oc2c1OC` ?
inactive
